test system: human platelets in platelet-rich plasma (PRP); experiment: In vitro platelet aggregation in PRP of healthy human volunteers; format: cell-based; conditions: read-out: RUC-4 IC50; arachidonic acid (1.5 mM), vehicle, patient 5
pIC50: −log10 of the molar value.
measured.quantity: pIC50

>>> test_value("NCC(=O)Nc1cncc(-c2nn3c(=O)cc(N4CCNCC4)nc3s2)c1")
7.15

###

system: human platelets in platelet-rich plasma (PRP); test: In vitro platelet aggregation in PRP of healthy human volunteers; format: cell-based; settings: read-out: RUC-4 IC50; ADP 20 µM, blood anticoagulated with PPACK (0.1 mM), n = 5
measured.quantity: IC50 (µM)

>>> test_value("NCC(=O)Nc1cncc(-c2nn3c(=O)cc(N4CCNCC4)nc3s2)c1")
0.102
